# assay.summary: growth inhibition, single agents and combos, HTB85, cell-based, BGB or cisplatin IC20 combos, synergistic combos for chromothripsis tumors (AID 1671453);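 further: cells exposed for 96 hours before readout; 0% = vehicle DMSO and 100% = high DMSO killing control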
# experimental.conditions: HTB85 osteosarcoma cells, drug combinations, single agent, at 5 µM, stronger effect = higher value
Kindly supply the reported inhibition values for the records listed here.
Numbers only, in %.

Before answering, review these 5 worked examples.
molecule: O=C(/C=C/c1ccc(CN(CCO)CCc2c[nH]c3ccccc23)cc1)NO
unit.abbrev: %
inhibition: 99.9
--
molecule: O=C(O)[C@H](Cc1c[nH]c2ccccc12)N1C(=O)c2ccccc2C1=O
unit.abbrev: %
inhibition: -18.1
--
molecule: O=c1cc(N2CCOCC2)oc2c1ccc1ccccc12
unit.abbrev: %
inhibition: 5
--
molecule: NC1CCC(N[C@@H]2C[C@H]2c2ccccc2)CC1 (stereo partly specified)
unit.abbrev: %
inhibition: 26.6
--
molecule: Nc1nc2n[nH]nc2c(=O)[nH]1
unit.abbrev: %
inhibition: 1.86

From here, focus on the item given below.
Sample O=c1cc(N2CCOCC2)oc2c(-c3cccc4c3sc3ccccc34)cccc12 ; inhibition observed: 12.4
